# Subject of test: human GCG receptor (human, UniProt P47871 26-477)
# Sequence (P47871 26-477): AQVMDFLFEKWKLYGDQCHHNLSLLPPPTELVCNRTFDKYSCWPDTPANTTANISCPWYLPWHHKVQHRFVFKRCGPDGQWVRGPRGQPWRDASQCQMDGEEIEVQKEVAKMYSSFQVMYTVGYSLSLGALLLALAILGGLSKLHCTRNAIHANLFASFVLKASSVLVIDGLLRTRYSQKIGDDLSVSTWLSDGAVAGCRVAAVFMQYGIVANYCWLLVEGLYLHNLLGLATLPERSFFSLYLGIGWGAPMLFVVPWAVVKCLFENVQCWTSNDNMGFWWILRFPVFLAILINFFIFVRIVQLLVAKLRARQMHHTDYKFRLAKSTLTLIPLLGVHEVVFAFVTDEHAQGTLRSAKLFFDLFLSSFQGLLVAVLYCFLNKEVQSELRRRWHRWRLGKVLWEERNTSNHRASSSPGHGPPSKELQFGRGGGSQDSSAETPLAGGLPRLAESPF
# Experiment notes: cell-based or functional assay
Positions of bridges follow the written chain, without caps; N, C: chain ends. Non-standard residues stand in square brackets, D forms with d. No end group written: not given here. *: point of attachment. Acetyl(2-(4-imidazolyl)) = O=C(Cc1c[nH]cn1)*; Aib = CC(C)(N)C(=O)O
Each record is given condition met if its reported In vitro activity (%) compared with native peptide: vs Glucagon is strictly below 0.4%. Records at or above 0.4% are given condition not met.

>>> label("{Acetyl(2-(4-imidazolyl))}-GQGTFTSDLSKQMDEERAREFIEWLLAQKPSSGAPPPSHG (not fully specified; also: ring from underlined residues, positions not shown) [triple agonist of SEQ ID NO: 17]")
"condition met"
>>> label("Y[Aib]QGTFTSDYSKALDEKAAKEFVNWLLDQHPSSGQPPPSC (bridge 16-20) [triple agonist of SEQ ID NO: 101]")
"condition not met"
>>> label("{Acetyl(2-(4-imidazolyl))}-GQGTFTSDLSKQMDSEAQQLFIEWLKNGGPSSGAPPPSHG (not fully specified; also: ring from underlined residues, positions not shown) [triple agonist of SEQ ID NO: 16]")
"condition met"
>>> label("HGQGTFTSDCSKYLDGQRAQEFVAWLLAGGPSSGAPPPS (ends and bridges not checked) [triple agonist of SEQ ID NO: 47]")
"condition met"
>>> label("{Acetyl(2-(4-imidazolyl))}-[Aib]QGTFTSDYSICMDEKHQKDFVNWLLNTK (bridge 15-19; not fully specified) [triple agonist of SEQ ID NO: 59]")
"condition met"
>>> label("Y[Aib]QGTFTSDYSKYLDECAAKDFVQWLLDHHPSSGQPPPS (bridge 16-20) [triple agonist of SEQ ID NO: 67]")
"condition not met"
>>> label("H[Aib]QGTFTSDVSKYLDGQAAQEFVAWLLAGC (not fully specified) [triple agonist of SEQ ID NO: 9]")
"condition met"
>>> label("H[Aib]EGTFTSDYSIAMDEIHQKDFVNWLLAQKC (bridge 16-20; not fully specified) [triple agonist of SEQ ID NO: 79]")
"condition not met"
